- protocol_description: Determination of drug solubility
- Format: physicochemical
- measurement_parameters: thermodynamic from solid; water / aqueous solvent; read-out: Solubility Water
test_readout: solubility

Prompt: Name the reported solubility value associated with the compound CCN[C@H]1C[C@H](C)S(=O)(=O)c2sc(S(N)(=O)=O)cc21 [Dorzolamide, reference compound]
Completion: > 50000 µg/mL

Prompt: Name the reported solubility value associated with the compound CCN[C@H]1CN(CCCOC)S(=O)(=O)c2sc(S(=O)(=O)NC(=O)[C@H](C)OC(=O)[C@H](C)OC(=O)[C@H](C)OC(=O)[C@H](C)OC(=O)CCC(=O)Oc3ccc4c(c3)/C(=C/c3[nH]c(C)c(C(=O)NCCN(CC)CC)c3C)C(=O)N4)cc21 [60-1]
Completion: < 1000 µg/mL

Prompt: Name the reported solubility value associated with the compound CCN[C@H]1CN(CCCOC)S(=O)(=O)c2sc(S(=O)(=O)NC(=O)[C@H](C)OC(=O)[C@H](C)OC(=O)[C@H](C)OC(=O)[C@H](C)OC(=O)[C@H](C)OC(C)=O)cc21 [38-1, brinzolamide-acetyl PLA (n=5)]
Completion: < 1000 µg/mL

* * *

- protocol_description: Determination of drug solubility
- Assay type: physicochemical
- measurement_parameters: DCM, organic solvent or mixture, thermodynamic from solid; read-out: Solubility DCM
Assignment: determine reported solubility for the given compounds.

Prompt: Name the reported solubility value associated with the compound CCN[C@H]1C[C@H](C)S(=O)(=O)c2sc(S(=O)(=O)NC(=O)[C@H](C)OC(=O)[C@H](C)OC(=O)[C@H](C)OC(C)=O)cc21 [26-1]
Completion: > 50 mg/mL

Prompt: Name the reported solubility value associated with the compound CCN[C@H]1C[C@H](C)S(=O)(=O)c2sc(S(N)(=O)=O)cc21 [Dorzolamide, reference compound]
Completion: < 1 mg/mL

Prompt: Name the reported solubility value associated with the compound CCN[C@H]1CN(CCCOC)S(=O)(=O)c2sc(S(=O)(=O)NC(=O)[C@H](C)OC(=O)[C@H](C)OC(=O)[C@H](C)O)cc21 [34-2, brinzolamide-PLA (n=3)]
Completion: > 50 mg/mL

* * *

- protocol_description: Determination of drug solubility
- Assay type: physicochemical
- measurement_parameters: water / aqueous solvent
test_readout: Solubility Water

Prompt: Name the reported Solubility Water value associated with the compound C=C(CC)C(=O)c1ccc(OCC(=O)O)c(Cl)c1Cl
Completion: <1000 µg/mL

Prompt: Name the reported Solubility Water value associated with the compound CCN[C@H]1CN(CCCOC)S(=O)(=O)c2sc(S(=O)(=O)NC(=O)[C@H](C)OC(=O)[C@H](C)OC(=O)[C@H](C)OC(=O)CCCCC(=O)Oc3ccc4c(c3)/C(=C/c3[nH]c(C)c(C(=O)NCCN(CC)CC)c3C)C(=O)N4)cc21
Completion: <1000 µg/mL

Prompt: Name the reported Solubility Water value associated with the compound CCN[C@H]1C[C@H](C)S(=O)(=O)c2sc(S(N)(=O)=O)cc21 [Dorzolamide, reference compound]
Completion: >50000 µg/mL

Prompt: Name the reported Solubility Water value associated with the compound CCN[C@H]1CN(CCCOC)S(=O)(=O)c2sc(S(N)(=O)=O)cc21 [Brinzolamide, reference compound]
Completion: <1000 µg/mL

* * *

- protocol_description: Determination of drug solubility
- Format: physicochemical
- measurement_parameters: DCM, organic solvent or mixture, thermodynamic from solid; read-out: Solubility DCM
test_readout: solubility

Prompt: Name the reported solubility value associated with the compound CCN[C@H]1CN(CCCOC)S(=O)(=O)c2sc(S(=O)(=O)NC(=O)[C@H](C)OC(=O)[C@H](C)O)cc21 [33-2, brinzolamide-PLA (n=2)]
Completion: > 50 mg/mL

Prompt: Name the reported solubility value associated with the compound CCN[C@H]1C[C@H](C)S(=O)(=O)c2sc(S(=O)(=O)NC(=O)[C@H](C)OC(=O)[C@H](C)OC(=O)[C@H](C)OC(=O)[C@H](C)OC(=O)[C@H](C)OC(C)=O)cc21 [28-1, dorzolamide-acetyl PLA (n=5)]
Completion: > 50 mg/mL

Prompt: Name the reported solubility value associated with the compound CCN[C@H]1C[C@H](C)S(=O)(=O)c2sc(S(=O)(=O)NC(=O)[C@H](C)OC(=O)[C@H](C)OC(=O)[C@H](C)OC(=O)[C@H](C)OC(C)=O)cc21
Completion: > 50 mg/mL
